The following compounds are listed with their measured IC50 values.
target: EGFR wildtype (WT) (Homo sapiens); assay: Biochemical EGFR kinase assay (Lance Ultra TR-FRET), wildtype; details: Km ATP; read-out: IC50 WT (nM) Km ATP
Sequence (P00533 25-1210): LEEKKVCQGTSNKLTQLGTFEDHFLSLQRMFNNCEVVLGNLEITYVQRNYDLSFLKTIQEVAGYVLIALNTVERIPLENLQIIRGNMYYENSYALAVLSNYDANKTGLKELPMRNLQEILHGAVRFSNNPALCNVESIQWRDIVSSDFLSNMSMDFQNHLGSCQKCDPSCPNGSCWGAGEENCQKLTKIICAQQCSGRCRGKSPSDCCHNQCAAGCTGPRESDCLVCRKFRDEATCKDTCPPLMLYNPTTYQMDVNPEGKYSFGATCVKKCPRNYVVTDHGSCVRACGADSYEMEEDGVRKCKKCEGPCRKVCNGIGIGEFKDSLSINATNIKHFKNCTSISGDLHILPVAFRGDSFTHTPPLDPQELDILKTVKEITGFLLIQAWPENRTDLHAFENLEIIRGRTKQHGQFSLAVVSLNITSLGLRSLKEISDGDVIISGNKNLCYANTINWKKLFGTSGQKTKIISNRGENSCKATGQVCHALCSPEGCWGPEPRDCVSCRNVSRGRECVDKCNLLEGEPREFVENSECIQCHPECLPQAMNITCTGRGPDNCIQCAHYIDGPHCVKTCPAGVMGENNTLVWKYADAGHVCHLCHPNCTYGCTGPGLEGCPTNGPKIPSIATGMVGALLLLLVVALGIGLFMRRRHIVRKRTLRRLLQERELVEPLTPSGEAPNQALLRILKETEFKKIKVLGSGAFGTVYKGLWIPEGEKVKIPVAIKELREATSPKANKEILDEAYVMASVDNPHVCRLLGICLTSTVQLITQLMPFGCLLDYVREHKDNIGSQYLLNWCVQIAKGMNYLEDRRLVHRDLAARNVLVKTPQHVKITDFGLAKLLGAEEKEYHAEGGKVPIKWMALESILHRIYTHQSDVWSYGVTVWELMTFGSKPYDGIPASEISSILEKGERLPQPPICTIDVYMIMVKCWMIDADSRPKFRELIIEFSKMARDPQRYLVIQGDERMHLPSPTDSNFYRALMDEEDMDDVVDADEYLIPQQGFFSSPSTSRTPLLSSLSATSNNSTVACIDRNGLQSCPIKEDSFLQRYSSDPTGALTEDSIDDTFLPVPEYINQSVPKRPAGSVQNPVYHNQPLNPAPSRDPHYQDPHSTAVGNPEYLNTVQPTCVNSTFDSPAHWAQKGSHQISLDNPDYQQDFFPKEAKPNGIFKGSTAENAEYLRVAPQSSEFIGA
Your answer should be a plain number; it is taken to be in nM.

>>> df
                                   compound  units  measured_value
0  C[C@]1(O)CC[C@H](CNc2cc(Nc3ccnc(-c4cnn(S(=O)(=O)C5CC5)c4)n3)ncc2-c2ccn(C(F)F)n2)CC1     nM            25.1

Given the entry C[C@]1(O)CC[C@@H](Nc2cc(Nc3ccnc(-c4cnc5c(c4)CCCO5)n3)ncc2-c2ccn(C(F)F)n2)CC1 , report its measured IC50.
752

Given the entry CC(C)(CO)Cn1cc(-c2nccc(Nc3cc(N[C@H]4CC[C@@](C)(O)CC4)c(-c4ccn(C(F)F)n4)cn3)n2)cn1 , report its measured IC50.
16.7

Given the entry O=S(=O)(C1CC1)n1cc(-c2nccc(Nc3cc(N[C@H]4CC[C@@H](CCO)CC4)c(-c4ccn(CC(F)(F)F)n4)cn3)n2)cn1 , report its measured IC50.
7.1

Given the entry C[C@]1(O)CC[C@@H](Nc2cc(Nc3ccnc(-c4cccnc4F)n3)ncc2-c2ccn(C(F)F)n2)CC1 , report its measured IC50.
523

Given the entry CC(Nc1cc(Nc2ccnc(-c3cnn(S(=O)(=O)C4CC4)c3)n2)ncc1-c1ccn(C(F)F)n1)C(F)F (stereo not shown) , report its measured IC50.
488

Given the entry O=S(=O)(C1CC1)n1cc(-c2nccc(Nc3cc(N[C@H]4CC[C@@H](CN5CCC5)CC4)c(-c4ccn(CC(F)F)n4)cn3)n2)cn1 , report its measured IC50.
0.7

###

biological target: EGFR del19/C797S (Homo sapiens, UniProt P00533, C797S/DEL746-750); test: Biochemical EGFR kinase assay (Lance Ultra TR-FRET), double mutant del19/C797S; details: Km ATP; read-out: IC50 del19/C797S (nM) Km ATP
Sequence (P00533 with tags, fused parts or gaps DEL746-750/C797S): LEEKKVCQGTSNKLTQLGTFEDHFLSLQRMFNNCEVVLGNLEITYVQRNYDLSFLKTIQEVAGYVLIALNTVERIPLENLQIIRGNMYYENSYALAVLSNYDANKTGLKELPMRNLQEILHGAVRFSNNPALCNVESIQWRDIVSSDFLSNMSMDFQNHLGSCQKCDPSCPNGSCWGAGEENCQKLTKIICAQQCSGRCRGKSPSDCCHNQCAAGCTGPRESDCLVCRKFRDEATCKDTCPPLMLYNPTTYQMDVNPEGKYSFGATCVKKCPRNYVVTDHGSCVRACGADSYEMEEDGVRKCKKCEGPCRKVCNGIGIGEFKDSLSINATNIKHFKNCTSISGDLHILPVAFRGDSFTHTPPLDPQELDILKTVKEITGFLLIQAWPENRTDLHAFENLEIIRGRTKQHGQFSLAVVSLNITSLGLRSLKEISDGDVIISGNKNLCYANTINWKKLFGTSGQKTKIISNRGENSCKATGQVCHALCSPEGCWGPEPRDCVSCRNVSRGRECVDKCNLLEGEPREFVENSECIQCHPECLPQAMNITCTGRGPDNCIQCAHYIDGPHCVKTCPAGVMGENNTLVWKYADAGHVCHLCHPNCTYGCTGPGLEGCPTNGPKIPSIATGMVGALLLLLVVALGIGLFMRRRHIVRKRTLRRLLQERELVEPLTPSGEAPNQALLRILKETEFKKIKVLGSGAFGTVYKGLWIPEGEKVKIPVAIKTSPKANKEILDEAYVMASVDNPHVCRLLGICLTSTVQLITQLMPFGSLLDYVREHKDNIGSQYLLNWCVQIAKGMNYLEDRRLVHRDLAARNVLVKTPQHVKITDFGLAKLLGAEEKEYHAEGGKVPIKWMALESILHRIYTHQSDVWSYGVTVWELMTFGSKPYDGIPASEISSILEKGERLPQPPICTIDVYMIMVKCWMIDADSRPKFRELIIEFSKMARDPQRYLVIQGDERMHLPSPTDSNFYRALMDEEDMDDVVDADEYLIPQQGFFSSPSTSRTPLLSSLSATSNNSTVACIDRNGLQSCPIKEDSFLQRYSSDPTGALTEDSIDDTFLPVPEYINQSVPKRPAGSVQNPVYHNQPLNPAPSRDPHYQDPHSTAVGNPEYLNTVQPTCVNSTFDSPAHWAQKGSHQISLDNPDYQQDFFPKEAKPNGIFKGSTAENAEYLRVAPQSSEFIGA
Returns: string. Value is rule met if measured IC50 is below 20 nM, and rule not met if it is greater than or equal to it.

Consider the worked cases shown below.
>>> df
                                   compound   class_label
0  C[C@H](CCF)Nc1cc(Nc2ccnc(-c3cnn(S(=O)(=O)C4CC4)c3)n2)ncc1-c1ccn(C(F)F)n1 [Example 212]  rule not met
1  O=S(=O)(C1CC1)n1cc(-c2nccc(Nc3cc(N[C@H]4CC[C@H](CCO)CC4)c(-c4ccn(CC(F)(F)F)n4)cn3)n2)cn1 [Example 270]  rule not met

Consider the compound O=S(=O)(C1CC1)n1cc(-c2nccc(Nc3cc(N[C@H]4CC[C@@H](CO)CC4)c(-c4ccn(C5COC5)n4)cn3)n2)cn1 [Example 282] . Is its IC50 strictly less than 20 nM?
rule met

Consider the compound Cc1nn(C)c(F)c1-c1nccc(Nc2cc(N[C@H]3CC[C@@](C)(O)CC3)c(-c3ccn(C(F)F)n3)cn2)n1 [Example 319] . Is its IC50 strictly less than 20 nM?
rule not met

Consider the compound C[C@]1(O)CC[C@@H](Nc2cc(Nc3ccnc(-c4cnn(S(=O)(=O)C5CC5)c4)n3)ncc2-c2ccn(C3CC3)n2)CC1 [Example 290] . Is its IC50 strictly less than 20 nM?
rule met

Consider the compound Cn1nc(-c2cnc(Nc3ccnc(-c4cnn(S(=O)(=O)C5CC5)c4)n3)cc2N[C@H]2CC[C@@](C)(O)CC2)cc1N1CCC(F)(F)CC1 [Example 307] . Is its IC50 strictly less than 20 nM?
rule met

###

The following compounds are listed with their measured IC50 values.
biological target: EGFR del19/C797S (Homo sapiens, UniProt P00533, C797S/DEL746-750); assay: Biochemical EGFR kinase assay (Lance Ultra TR-FRET), double mutant del19/C797S; conditions: Km ATP; read-out: IC50 del19/C797S (nM) Km ATP
Answers without a unit are incomplete; give the number and then its unit.

Solved entries (count: 3):
In [3]: df
Out[3]:
                                   compound  measured_value
0  O=S(=O)(C1CC1)n1cc(-c2nccc(Nc3cc(NC4CC5CC(O)C4C5)c(-c4ccn(C(F)F)n4)cn3)n2)cn1 (centres unmarked)          7.2 nM
1  O=S(=O)(C1CC1)n1cc(-c2nccc(Nc3cc(NC4CCCC4O)c(-c4ccn(C(F)F)n4)cn3)n2)cn1 (centres unmarked)         89.9 nM
2  CN(C)CC[C@H]1CC[C@@H](Nc2cc(Nc3ccnc(-c4cnn(S(=O)(=O)C5CC5)c4)n3)ncc2-c2ccn(C(F)F)n2)CC1          0.4 nM

Given the entry OC1CCN(Nc2cc(Nc3ccnc(-c4cnn(CC(F)F)c4)n3)ncc2-c2ccn(C(F)F)n2)CC1 , report its measured IC50.
33.4 nM

Given the entry Cn1ccc(-c2cnc(Nc3ccnc(-c4cnn(S(=O)(=O)C5CC5)c4)n3)cc2NC2CCCC(NCCF)C2)n1 (centres unmarked) , report its measured IC50.
2.9 nM

Given the entry CC1(C)CC(Nc2cc(Nc3ccnc(-c4cnn(S(=O)(=O)C5CC5)c4)n3)ncc2-c2ccn(C(F)F)n2)CCC1O (centres unmarked) , report its measured IC50.
19.6 nM

Given the entry COCn1ccc(-c2cnc(Nc3ccnc(-c4cnn(S(=O)(=O)C5CC5)c4)n3)cc2NC(C)C)n1 , report its measured IC50.
2.2 nM

Given the entry Cc1nn(S(=O)(=O)N(C)C)cc1-c1nccc(Nc2cc(N[C@H]3CC[C@@](C)(O)CC3)c(-c3ccn(C(F)F)n3)cn2)n1 , report its measured IC50.
6.3 nM

###

target: EGFR wildtype (WT) (Homo sapiens); test: Biochemical EGFR kinase assay (Lance Ultra TR-FRET), wildtype; details: Km ATP; read-out: IC50 WT (nM) Km ATP
The following compounds are listed with their measured log10 of IC50 values.
The base-10 logarithm of IC50, taken with IC50 in nM, is what appears here.

Solved entries (count: 4):
In [3]: df
Out[3]:
                                   compound  measured_value
0  CN(C)CCCn1ccc(-c2cnc(Nc3ccnc(-c4cnn(S(=O)(=O)C5CC5)c4)n3)cc2N[C@H]2CC[C@@H](CO)CC2)n1           -0.52
1  CN(CC(F)F)C(=O)[C@H]1CC[C@@H](Nc2cc(Nc3ccnc(-c4cnn(S(=O)(=O)C5CC5)c4)n3)ncc2-c2ccn(C)n2)CC1            0.20
2  O=S(=O)(C1CC1)n1cc(-c2nccc(Nc3cc(NC4CCCC(NCCF)C4)c(-c4ccn(C(F)F)n4)cn3)n2)cn1 (stereo not shown)            1.30
3  Cn1ccc(-c2cnc(Nc3ccnc(-c4cnn(S(=O)(=O)C5CC5)c4)n3)cc2N[C@H]2CC[C@H](CO)CC2)n1            1.00

Given the entry C[C@]1(O)CC[C@@H](Nc2cc(Nc3ccnc(-c4cnn(S(=O)(=O)C5CC5)c4)n3)ncc2-c2csc(N3CCOCC3)n2)CC1 , report its measured log10 of IC50.
1.47

Given the entry COCn1ccc(-c2cnc(Nc3ccnc(-c4cnn(S(=O)(=O)C5CC5)c4)n3)cc2N[C@H]2CC[C@@H](C(C)(C)O)CC2)n1 , report its measured log10 of IC50.
0.70

Given the entry CC1(O)CCC(Nc2cc(Nc3ccnc(-c4cnn(S(=O)(=O)C5CCOC5)c4)n3)ncc2-c2ccn(C(F)F)n2)CC1 (stereo not shown) , report its measured log10 of IC50.
0.62

Given the entry OCC[C@H]1CC[C@H](Nc2cc(Nc3ccnc(-c4cnn(CC(F)F)c4)n3)ncc2-c2ccn(C(F)F)n2)CC1 , report its measured log10 of IC50.
1.71

Given the entry Cn1cc(-c2nccc(Nc3cc(N[C@H]4CC[C@@](C)(O)CC4)c(-c4ccn(C(F)F)n4)cn3)n2)cn1 , report its measured log10 of IC50.
1.79

Given the entry CC(C)(O)[C@H]1CC[C@@H](Nc2cc(Nc3ccnc(-c4cnn(CC(F)F)c4)n3)ncc2-c2ccn(C(F)F)n2)CC1 , report its measured log10 of IC50.
2.11

Given the entry CN(C)[C@H]1CC[C@H](CNc2cc(Nc3ccnc(-c4cnn(S(=O)(=O)C5CC5)c4)n3)ncc2-c2ccn(C(F)F)n2)CC1 , report its measured log10 of IC50.
0.43

Given the entry CCC(C)Nc1cc(Nc2ccnc(-c3cnn(S(=O)(=O)C4CC4)c3)n2)ncc1-c1ccn(C(F)F)n1 (stereo not shown) , report its measured log10 of IC50.
1.96

Given the entry O=S(=O)(C1CC1)n1cc(-c2nccc(Nc3cc(N[C@H]4CC[C@@H](F)CC4)c(-c4ccn(C(F)F)n4)cn3)n2)cn1 , report its measured log10 of IC50.
1.86
